assay: inhibitors of larval lipid processing in zebrafish, primary screen, whole organism, PED6 fluorescence, gall bladder and intestine (AID 686); conditions: Zebrafish larvae PED6 lipid processing, fluorescence scoring; screened at 20 µM (by protocol);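 also: larvae 5 to 7 days old with five fish per well; signal comes from phospholipase A2 cleavage of quenched PED6 carried via bile; overnight exposure to compound and PED6 before scoring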
Calls of active or inactive are those of the source.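 The calls were made as follows: active = a full or partial loss of lipid-probe fluorescence in the fish gall bladder, intestine or both, judged by eye; inactive = no fluorescence loss, or compound toxic to the fish.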
Classes used: Yes = active, No = inactive

compound: CCOC(=O)C1CCN(c2ncnc3c2cnn3-c2ccc(Cl)cc2)CC1
label-class: No

compound: Cc1cccn2c(=O)c3cc(C(=O)NCc4cccnc4)c(=N)n(C)c3nc12
label-class: No

compound: O=C(NCc1ccccc1)/C(=N\O)c1ccccc1
label-class: No

compound: COc1cc2nc(-c3ccccc3)nc(N3CCCC3)c2cc1OC
label-class: No

compound: COc1ccc(C(O)C(CN2CCOCC2)c2ccccc2)cc1 (stereo not given)
label-class: No

compound: Cc1ccc(N2C(=O)CC3(CC4C=CC3C4)C2=O)cc1 (stereo not given)
label-class: No

compound: Cn1c(=O)n(CC(=O)Nc2ccccc2)c2ccccc21
label-class: No

compound: CC(C(=O)NC(=O)NCc1ccccc1)N1C(=O)c2ccccc2C1=O (stereo not given)
label-class: No

compound: COCC(C)Nc1ncnc2c1cnn2-c1ccc(Cl)cc1 (stereo not given)
label-class: No

compound: N#Cc1nc(COc2ccccc2Cl)oc1NCc1ccc(F)cc1
label-class: No

compound: O=C1c2ccccc2-c2onc3ccc(NCc4ccco4)c1c23
label-class: Yes

compound: CC(=O)NCC(=O)OCN1C(=O)c2ccccc2C1=O
label-class: No

compound: N#CCSc1nc2c(c(=O)n1Cc1ccco1)C1(CCCC1)Cc1ccccc1-2
label-class: Yes

compound: Cc1nn(CCO)c2c1C(=O)CCC2
label-class: No

compound: O=C(OCCN1CCOCC1)c1ccc2c(c1)OCCO2
label-class: No

compound: Nc1c(C(=O)NCc2ccco2)sc2nc(N3CCOCC3)c3c(c12)CCCC3
label-class: No

compound: COc1ccc2c(c1OC)C(=O)OC2c1c(O)nc(SC)n(-c2ccccc2)c1=O (stereo not given)
label-class: No

compound: O=C1NCC(COCC2CC=CCC2)O1 (stereo not given)
label-class: No

compound: N#Cc1nc(COc2ccc(Cl)cc2)oc1N1CCN(Cc2ccccc2)CC1
label-class: No

compound: CCN1CCc2c(C#N)c(N3CCCCC3)nc(N3CCOCC3)c2C1
label-class: No

compound: COC(=O)C(C)Sc1nc2c(c(=O)n(C)c(=O)n2C)n1CCC(C)C (stereo not given)
label-class: No

compound: COc1cc(C)nc(Nc2nc(C)c(C(C)=O)s2)n1
label-class: No

compound: COc1ccccc1C(=O)Nc1cc(Cl)ccc1O
label-class: No

compound: O=C(Oc1cccnc1)c1ccco1
label-class: No

compound: CC(C)COc1ccc(C(=O)OCCN2CCOCC2)c(O)c1
label-class: No

====

assay: inhibitors of E-selectin induction by TNFa, primary screen, imaging, HUVEC, immunofluorescence, MLSMR starter and 10KST1 sets (AID 487); conditions: HUVEC TNFalpha-induced E-selectin immunofluorescence imaging, at 2 µM; measured here: cell number, toxicity;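 also: 100% = median nuclei count of all wells on the same plate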
# nuclei count values compiled below

molecule: COc1ccccc1CNS(=O)(=O)c1ccc(NC(C)=O)cc1
nuclei count: 109%

molecule: CC(O)(C#CCN1CCOCC1)c1ccccc1 (stereo not given)
nuclei count: 149%

molecule: Cc1c(C(=O)Nc2ccncc2)oc2c1C(=O)CC(C)(C)C2
nuclei count: 97.2%

molecule: c1ccc(-c2noc(C3CCCCC3)n2)nc1
nuclei count: 110%

molecule: COc1ccc(Nc2nnc(C)c3ccccc23)cc1C(N)=O
nuclei count: 152%

molecule: CCCCC(=O)c1c(C)cc(C)[nH]c1=O
nuclei count: 191%

molecule: Cc1cc(C)n(CC(=O)c2ccccc2)c(=O)c1C#N
nuclei count: 157%

molecule: O=C1CC(N2CCN(C3CCc4ccccc4C3)CC2)C(=O)N1c1ccccc1 (stereo not given)
nuclei count: 121%

molecule: CCN(CC)c1nc(C)c2c(c1C#N)CC(C)(C)OC2
nuclei count: 118%

molecule: O=C(CSc1nnc(-c2ccccc2)o1)N1CCN(c2ccccc2)CC1
nuclei count: 105%

molecule: O=C(Sc1nnnn1C1CCCCC1)c1cccs1
nuclei count: 129%

molecule: O=S1(=O)CC(N2CCOCC2)c2ccccc21 (stereo not given)
nuclei count: 112%

molecule: Cc1ccc(-c2n[nH]c(=O)c3ccccc23)cc1S(=O)(=O)NCCN1CCOCC1
nuclei count: 160%

molecule: Cc1cccc(NC(=O)c2c(C)cc(=O)oc2C)n1
nuclei count: 170%

molecule: CCCn1nc(Oc2nc(SC)nc(N(C)C)n2)ccc1=O
nuclei count: 91.9%

molecule: Cc1cc(=O)oc(C)c1C(=O)n1nc(C)c2c1C[C@@H]1[C@H]2C1(C)C
nuclei count: 176%

molecule: CCCN1CCN(CCCNC(=O)Cn2ncc3c4ccccc4n(C)c3c2=O)CC1
nuclei count: 110%

molecule: Cc1cc2nncn2c(Cc2ccccc2)n1
nuclei count: 183%

molecule: CC(C(N)=O)N1C(=O)C2C3C=CC(C3)C2C1=O (stereo not given)
nuclei count: 121%

molecule: O=C(Nc1cccc2ccccc12)N1CCN(c2ccccc2)CC1
nuclei count: 100%

molecule: CCC(=O)NC1(C(F)(F)F)C(=O)Nc2c1c(=O)[nH]c(=O)n2Cc1ccco1 (stereo not given)
nuclei count: 167%

molecule: Cc1cc(NCCNC2=CC(=O)CCC2)nc2ccccc12
nuclei count: 148%

molecule: CCCOc1ccccc1C(=O)NCCCC(=O)O
nuclei count: 137%

molecule: c1ccc2c(c1)[nH]c1c(N3CCSCC3)ncnc12
nuclei count: 193%

molecule: O=C(C(c1ccccc1)N1CCOCC1)N1CCOCC1 (stereo not given)
nuclei count: 159%

====

Examples of molecules with documented fluorescence slope follow.
molecular target: Voltage-gated potassium channel subunit beta-2 (Rattus norvegicus) (UniProt P62483); experiment: KvBeta enzyme negative modulators, primary screen, biochemical, NADPH fluorescence (AID 622); details: recombinant KvBeta, 4-cyanobenzaldehyde reduction, at 10 µM, stronger effect = higher value;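 also: slope of raw intensity against log time taken from 70 to 1610 s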
Sequence (P62483 whole entry, looked up): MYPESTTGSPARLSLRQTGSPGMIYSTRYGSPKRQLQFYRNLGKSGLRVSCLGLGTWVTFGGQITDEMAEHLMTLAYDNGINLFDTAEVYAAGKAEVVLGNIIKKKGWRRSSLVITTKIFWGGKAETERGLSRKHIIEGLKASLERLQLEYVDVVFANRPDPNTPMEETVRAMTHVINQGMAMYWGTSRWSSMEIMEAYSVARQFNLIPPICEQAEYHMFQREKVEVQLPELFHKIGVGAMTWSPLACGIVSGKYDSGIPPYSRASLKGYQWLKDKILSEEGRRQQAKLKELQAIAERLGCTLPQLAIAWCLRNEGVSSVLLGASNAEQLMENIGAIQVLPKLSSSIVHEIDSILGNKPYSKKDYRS
measured-parameter: fluorescence slope

molecule: CSc1nc2sc3c(c2c2nncn12)CCC3
test-result: -0.46

molecule: CCCn1c(SCC#N)nc2c(c1=O)C1(CCCC1)Cc1ccccc1-2
test-result: -0.402

molecule: COc1cccc(C2C(C(=O)c3sc(C)nc3C)=C(O)C(=O)N2CCN2CCOCC2)c1OC (stereo unspecified)
test-result: -0.47

molecule: Cc1ccccc1N1C(=O)C2ON(c3ccccc3)C(c3cccnc3)C2C1=O (stereo unspecified)
test-result: -0.502

molecule: Cn1c(Cn2cnc3ccccc32)nc2ccccc21
test-result: -0.431

molecule: COc1ccc(S(=O)(=O)Nc2ccc(F)c(Cl)c2)cc1OC
test-result: -0.431

====

Reported inhibition values are given for each entry in this list.
test: inhibitors of TNFa-induced NFkB p65 translocation, primary screen, imaging, HUVEC, MLSMR starter and 10KST1 sets (AID 438); settings: HUVEC TNFa-induced p65 nuclear translocation; at 2 µM, stronger effect = higher value, 0% TNFa-plus-vehicle, 100% no-TNFa wells;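 also: compound added about 3h40 before a 20 min TNFalpha stimulation; signal is the nuclear over cytoplasmic p65 intensity ratio per well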

molecule: Cc1nnc2n(-c3ccc(Cl)cc3)c(=O)c3c4c(sc3n12)CN(C)CC4
inhibition / %: -5.7
//
molecule: CCOCCCNC(=O)C1CCCN(S(=O)(=O)CC)C1 (stereo not drawn)
inhibition / %: -36
//
molecule: CCCCC(=O)c1c(C)cc(C)[nH]c1=O
inhibition / %: -6.7
//
molecule: CCOC(=O)C1CCCN(c2c(NCc3ccco3)c(=O)c2=O)C1 (stereo not drawn)
inhibition / %: -7.3
//
molecule: CC1(C)Cc2nc3sc4c(N(CCO)CCO)ncnc4c3cc2CO1
inhibition / %: -7.2
//
molecule: COc1ccc(C2C(C(=O)c3sc(C)nc3C)=C(O)C(=O)N2CCN(C)C)cc1OC (stereo not drawn)
inhibition / %: 13.4
//
molecule: CCOC(=O)C1CCN(c2c(N(C)Cc3ccco3)c(=O)c2=O)CC1
inhibition / %: 0.9
//
molecule: C=CCn1c(=N)c(C(=O)OCC)cc2c(=O)n3cccc(C)c3nc21
inhibition / %: 5.3
//
molecule: Cn1cnc(S(=O)(=O)NCc2cccs2)c1
inhibition / %: 10.8
//
molecule: Cc1ccc(N2C(=O)c3sc4nnc(C)c(=O)n4c3C2=O)cc1
inhibition / %: 1.3
//
molecule: CCN(CC)CCN1C(=O)c2ccccc2NC1c1cc(OC)c(OC)c(OC)c1 (stereo not drawn)
inhibition / %: -13.1
//
molecule: N/C(=N/O)c1nc(N2CCCC2)nc(N(c2ccccc2)c2ccccc2)n1
inhibition / %: 0.4
//
molecule: CCc1c(C)c2ccc(OCC(=O)OC)cc2oc1=O
inhibition / %: 2.2
//
molecule: O=C(NC1CCCCC1)c1ccc(S(=O)(=O)N2CCCCC2)cc1
inhibition / %: 2.1
//
molecule: CC(NC(=O)NCc1cccnc1)(C(F)(F)F)C(F)(F)F
inhibition / %: -13.6
//
molecule: Nc1nc(N2C(=O)C3CC=CCC3C2=O)nn1-c1ccccc1 (stereo not drawn)
inhibition / %: 20.1
//
molecule: CN(C)c1oc(-c2ccccc2F)nc1C#N
inhibition / %: 5.5
//
molecule: CCOC(=O)Cc1nnc2c(Nc3ccc(C)cc3)nc3nonc3n12
inhibition / %: 1
//
molecule: CCC(C)(C(=O)NC1CCCCC1)N(Cc1ccco1)C(=O)c1cnccn1 (stereo not drawn)
inhibition / %: 0.3
//
molecule: CCCOc1ccc2ccccc2c1/C=N/n1cnnc1
inhibition / %: 4.6
//
molecule: CCCc1cc(NCCN2CCOCC2)n2c(nc3ccccc32)c1C#N
inhibition / %: 0.5
//
molecule: CC(=O)OCC1OC(c2ccccc2)C(OC(C)=O)C(OC(C)=O)C1OC(C)=O (stereo not drawn)
inhibition / %: -5
//
molecule: CC(=O)CCn1c(=O)n(CCC(C)=O)c(=O)n(CCC(C)=O)c1=O
inhibition / %: -1.6
